Origin of measurements: patent US20240199757A1

Target: T1, Full-length human NT5E (recombinant, in-house) (human, UniProt P21589 27-549)
T1 construct: also called hNT5E; hNT5EWT
T1 sequence: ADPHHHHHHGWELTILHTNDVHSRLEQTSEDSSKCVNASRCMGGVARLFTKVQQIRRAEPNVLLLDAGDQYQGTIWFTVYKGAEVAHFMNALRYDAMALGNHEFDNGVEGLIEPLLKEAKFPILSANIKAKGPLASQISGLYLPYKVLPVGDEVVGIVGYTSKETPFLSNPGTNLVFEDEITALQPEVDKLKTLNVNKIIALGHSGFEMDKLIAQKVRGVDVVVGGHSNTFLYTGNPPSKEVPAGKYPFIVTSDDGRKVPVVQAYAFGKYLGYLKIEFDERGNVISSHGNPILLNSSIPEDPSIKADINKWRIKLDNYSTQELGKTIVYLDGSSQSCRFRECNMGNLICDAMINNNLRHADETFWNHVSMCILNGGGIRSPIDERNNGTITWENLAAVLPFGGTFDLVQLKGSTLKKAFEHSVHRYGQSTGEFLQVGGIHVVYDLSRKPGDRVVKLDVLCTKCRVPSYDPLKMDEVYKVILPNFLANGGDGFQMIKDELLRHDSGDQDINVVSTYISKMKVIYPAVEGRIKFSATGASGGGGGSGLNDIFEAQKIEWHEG
Experiment: SPR, His-captured NT5E, 1 mM ATP
As shown below, each of these binders has a reported koff value.

[
  {
    "binder": "1789 AM32 Fab (Fab, V domains shown, also called Fab32) VH: EVQLVESGGGLVQPGGSLRLSCAASGFNVSYSSIHWVRQAPGKGLEWVARIRGNEGDTYYADSVKGRFTISADTSKNTAYLQMNSLRAEDTAVYYCARNYWGWYPFYYFAFDYWGQGTLVTV VL: DIQMTQSPSSLSASVGDRVTITCRASQSVSSAVAWYQQKPGKAPKLLIYSASSLYSGVPSRFSGSRSGTDFTLTISSLQPEDFATYYCQQGWDYPITFGQGTKVEIKR",
    "uom": "s⁻¹",
    "koff": 0.0042
  },
  {
    "binder": "1789 AM39 Fab (Fab, V domains shown) VH: EVQLVESGGGLVQPGGSLRLSCAASGFNVSYSSIHWVRQAPGKGLEWVASIRGAGSDTRYADSVKGRFTISADTSKNTAYLQMNSLRAEDTAVYYCARNYWGWYPFYYFAFDYWGQGTLVTV VL: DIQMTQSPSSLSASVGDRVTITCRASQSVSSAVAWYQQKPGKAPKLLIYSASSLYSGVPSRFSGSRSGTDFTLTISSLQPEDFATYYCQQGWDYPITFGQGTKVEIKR",
    "uom": "s⁻¹",
    "koff": 0.0039
  },
  {
    "binder": "1789 Fab (Fab, V domains shown) VH: EVQLVESGGGLVQPGGSLRLSCAASGFNVSYSSIHWVRQAPGKGLEWVASISSSSGYTYYADSVKGRFTISADTSKNTAYLQMNSLRAEDTAVYYCARNYWGWYPFYYFAFDYWGQGTLVTV VL: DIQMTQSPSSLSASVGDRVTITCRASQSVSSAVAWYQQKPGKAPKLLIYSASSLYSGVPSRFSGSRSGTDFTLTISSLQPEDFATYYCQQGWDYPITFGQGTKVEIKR",
    "uom": "s⁻¹",
    "koff": 0.0073
  },
  {
    "binder": "1789 AM42 Fab (Fab, V domains shown) VH: EVQLVESGGGLVQPGGSLRLSCAASGFNVSYSSIHWVRQAPGKGLEWVAKIRGGHQDTHYADSVKGRFTISADTSKNTAYLQMNSLRAEDTAVYYCARNYWGWYPFYYFAFDYWGQGTLVTV VL: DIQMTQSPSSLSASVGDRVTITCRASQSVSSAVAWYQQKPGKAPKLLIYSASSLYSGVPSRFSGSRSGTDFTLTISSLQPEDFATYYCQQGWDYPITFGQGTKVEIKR",
    "uom": "s⁻¹",
    "koff": 0.0036
  }
]
